Taken from ChEMBL document CHEMBL1201862.

- Test system: SF-295
- assay_method_text: NCI tumour cell line growth inhibition, 48 h
Structures can show the parent of a compound that is named as a salt. Activity calls are given as the source filed them. No stated cut-off is given here; in the data, active = GI50 up to about 1.1 µM and inactive = higher.
Parameter call: string, one of active, inactive

COc1cc(OCCN(C)C)c2[nH]c(C(=O)N3CC(CCl)c4ccc(N)cc43)cc2c1 (stereo not given) = active
CC12CC/C(=N/NC(N)=O)C3C1CCCC32 = inactive
COC(=O)C(=O)C(C(=O)C(=O)Nc1ccc(Cl)c(Cl)c1)c1nc2ccc(C(=O)c3ccccc3)cc2nc1O (stereo not given) = inactive
O=C(NCCN(CCNC(=O)c1cccc(=O)n1O)CCNC(=O)c1cccc(=O)n1O)c1cccc(=O)n1O = inactive
COc1ccc(N2CN3OC(=O)N(c4ccc(OC)cc4)[C@@]3(c3ccccc3)C2)cc1 = inactive
CNNCc1ccc(C(=O)NC(C)C)cc1 [PROCARBAZINE HYDROCHLORIDE] = inactive
COC(=O)c1ccc2cc(O)c(O)cc2c1 = inactive
Cc1cc(N)c2cc(NC(=O)Nc3ccc4nc(C)cc(N)c4c3)ccc2n1 = inactive

Task: So what was the verdict on CCCC(CCC)C(=O)O in this test?
Output: inactive

Task: Tell me the recorded outcome of this test for Cc1ccc(C)c(/C(=N\N=C(N)N)C2CC2)c1 .
Output: inactive

Task: Look up the recorded call for Cc1ccc(NCC2(/N=C/c3ccccc3)OC(CO)C(O)C2O)cc1 (stereo not given) in this test.
Output: inactive

Task: Which outcome was entered for the compound C[C@]12CC[C@H](O)CC1=CC[C@@H]1[C@@H]2CC[C@]2(C)C(=O)[C@@H](N3CCOCC3)C[C@@H]12 in this test?
Output: inactive

Task: How did this test come out for COC(=O)c1cc(/C=C/C(=O)Cc2ccccc2)cn1S(=O)(=O)c1ccccc1 ?
Output: inactive

====

- System: UACC-62
- assay_method_text: NCI tumour cell line growth inhibition, 48 h
Activity calls are given as the source filed them. Rule as the data show it: active = GI50 up to about 1.1 µM and inactive = higher.
recorded_endpoint: GI50

These recorded examples may help you get a feel for the data.
Cc1ccc(C(=O)N/N=C(\N=N\c2ccccc2)c2ccc(N(CCC#N)CCC#N)cc2C)cc1 = 38.8 µM (inactive)
CC1(C)Oc2ccccc2N2O[C@@H]3C(=O)N(c4ccccc4)C(=O)[C@@H]3C21c1ccccc1 (stereo not given in full) = 33.1 µM (inactive)
C[C@@H]1S[C@H](c2c(Cl)cccc2Cl)N2Cc3ccccc3N=C12 = 97.3 µM (inactive)

Please supply GI50 for each of the following items, keeping them in order.
1. NCCCCNCCCNC(=O)c1nc(-c2csc(CCN)n2)sc1Cl
2. NCc1ccc(-c2ccc(CN)s2)s1
3. O=C1c2ccccc2C(=O)c2c1ccc(C1C(=O)c3ccccc3C1=O)c2-c1c(C2C(=O)c3ccccc3C2=O)ccc2c1C(=O)c1ccccc1C2=O
4. O=C(CNC(=O)OCc1ccccc1)NCCCCC(NC(=O)OCc1ccccc1)C(=O)NC(CCCCNC(=O)CNC(=O)OCc1ccccc1)C(=O)OCc1ccccc1 (stereo not given)
5. CC12CC/C(=N/NC(N)=O)C3C1CCCC32
6. O=C(/C=C/c1ccc(Cl)cc1)Oc1ccc(C=C2CCC/C(=C\c3ccc(OC(=O)/C=C/c4ccc(Cl)cc4)cc3)C2=O)cc1
7. N=C(N)SCc1ccc2c(c1)Sc1ccccc1O2

Output:
1: > 100 µM (inactive); 2: 14.6 µM (inactive); 3: > 100 µM (inactive); 4: > 62.5 µM (inactive); 5: > 100 µM (inactive); 6: > 100 µM (inactive); 7: 4.62 µM (inactive)

Below are 7 compounds. Give each one its GI50.
1. N=c1oc2cc(O)ccc2cc1C(=O)Nc1cccc2ccccc12
2. CCN(CC)C(=O)CCn1ccc(=O)[nH]c1=O
3. CSC(=O)C[C@@]12O[C@@H]([C@@H](C)C3CCC4[C@@H]5C(O)CC6=CC(=O)C=C[C@]6(C)C5CC[C@@]43C)C[C@](C)(O1)C(C)(C)O2 (stereo not given in full)
4. C[n+]1c2ccccc2c(NC(CCCNC(=N)N)C(=O)O)c2ccccc21 (stereo not given)
5. NC1=NS(=O)(=O)N=C(N)C1=Cc1ccc([N+](=O)[O-])o1
6. Cc1cc(C)c2c(=O)cc(-c3ccccc3)[nH]c2c1
7. NC(=S)NC/C=C/Cl

Output:
3.23 µM (inactive)
> 100 µM (inactive)
10.3 µM (inactive)
> 100 µM (inactive)
16.4 µM (inactive)
1.6 µM (inactive)
> 100 µM (inactive)

Below are some compounds; for each one, tell me its GI50.
1. Cc1cc(=O)oc2c(C)c(OCCCOc3ccc4c(C)cc(=O)oc4c3C)ccc12
2. CN(C)c1cccc(NC2=NCCO2)c1

Output:
1: > 100 µM (inactive); 2: 50.7 µM (inactive)

Task: Sample CN1c2ccccc2N(C)C23N(C)c4ccccc4N(C)C12N(C)c1ccccc1N3C (stereo not given) — what was its GI50?
Output: > 100 µM (inactive)
